target: cardiac β-receptors (Felis catus); construct: All compounds were thereby tested in anaeshtetized cats; from tissue; host or cells: heart of the living, reserpinized, anaesthetized cat; assay: Intrinsic beta mimetic activity on the heart (increase of heart rate), reserpinized anaesthetized cat; assay type: in vivo; conditions: i.v., maximal heart rate response obtained with high doses of isoprenaline
Assay readout: Intrinsic activity % of isoprenaline

What value of Intrinsic activity % of isoprenaline has been recorded for this entry: COc1ccc(OCCNCC(O)COc2ccccc2C)cc1 (centres unmarked)
22 % of isoprenaline

---
What value of Intrinsic activity % of isoprenaline has been recorded for this entry: Cc1ccccc1OCC(O)CNCCOc1ccccc1O (centres unmarked)
29 % of isoprenaline

---

target: cardiac β-receptors (Felis catus, UniProt Q9TST6); construct: All compounds were thereby tested in anaeshtetized cats; from tissue; host or cells: heart of the living, reserpinized, anaesthetized cat; test: Intrinsic beta mimetic activity on the heart (increase of heart rate), reserpinized anaesthetized cat; assay type: in vivo; conditions: i.v., increase of heart rate after drug
Sequence (Q9TST6 whole entry): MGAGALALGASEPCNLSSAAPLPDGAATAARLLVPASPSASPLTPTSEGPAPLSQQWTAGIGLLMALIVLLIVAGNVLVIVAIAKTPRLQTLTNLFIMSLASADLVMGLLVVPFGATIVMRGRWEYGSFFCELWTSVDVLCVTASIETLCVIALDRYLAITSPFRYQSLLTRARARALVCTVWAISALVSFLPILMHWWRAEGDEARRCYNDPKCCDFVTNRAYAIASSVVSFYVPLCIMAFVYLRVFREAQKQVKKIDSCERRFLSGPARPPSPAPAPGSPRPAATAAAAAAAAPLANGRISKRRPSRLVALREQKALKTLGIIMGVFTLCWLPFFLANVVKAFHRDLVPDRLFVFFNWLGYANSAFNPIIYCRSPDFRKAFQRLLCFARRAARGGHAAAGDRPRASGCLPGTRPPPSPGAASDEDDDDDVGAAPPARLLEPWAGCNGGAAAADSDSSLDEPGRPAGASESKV
Assay readout: Intrinsic activity Δbeats/min

Below, each entry is followed by its recorded Intrinsic activity Δbeats/min result.
What value of Intrinsic activity Δbeats/min has been recorded for this entry: Cc1ccccc1OCC(O)CNCCOc1ccccc1O (stereo not drawn)
30 beats/min

Try this compound next: CCCc1ccccc1OCC(O)CNCCOc1ccc(O)cc1 (stereo not drawn)
0 beats/min

Try this compound next: COc1ccccc1OCCNCC(O)COc1ccccc1C (stereo not drawn)
8 beats/min

Try this compound next: OCc1ccccc1OCC(O)CNCCOc1ccc(O)cc1 (stereo not drawn)
17 beats/min

---
What value of Intrinsic activity Δbeats/min has been recorded for this entry: COc1ccc(OCCNCC(O)COc2ccccc2C)cc1 (stereo not drawn)
17 beats/min

Try this compound next: COc1ccc(OCCNCC(O)COc2ccccc2C)cc1OC (stereo not drawn)
8 beats/min

---

biological target: vascular β-receptors (Felis catus, UniProt Q9TST5); construct: All compounds were thereby tested in anaeshtetized cats; from tissue; host or cells: hind-leg vasculature of the living, reserpinized, anaesthetized cat (autoperfused); assay: β-blockade of isoprenaline peripheral (vascular) resistance response, reserpinized anaesthetized cat, autoperfused hind leg; assay type: in vivo; details: iv, i.v. test compound, isoproterenol 0.1 μg/kg i.v., dose reducing response to 50 percent
Sequence (Q9TST5 whole entry, the tested form may be a part): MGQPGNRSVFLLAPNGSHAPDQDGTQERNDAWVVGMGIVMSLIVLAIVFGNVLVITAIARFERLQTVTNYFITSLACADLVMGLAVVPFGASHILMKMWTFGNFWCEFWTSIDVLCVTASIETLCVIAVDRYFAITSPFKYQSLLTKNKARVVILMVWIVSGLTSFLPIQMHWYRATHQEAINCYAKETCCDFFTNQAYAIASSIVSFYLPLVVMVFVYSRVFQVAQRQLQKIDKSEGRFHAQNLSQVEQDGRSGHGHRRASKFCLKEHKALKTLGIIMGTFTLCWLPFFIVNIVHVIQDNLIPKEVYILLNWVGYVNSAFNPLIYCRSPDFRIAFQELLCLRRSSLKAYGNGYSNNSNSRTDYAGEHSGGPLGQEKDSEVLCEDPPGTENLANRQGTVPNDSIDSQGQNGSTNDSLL
Assay readout: ED50 (µmol/kg)
Supply the numeric figure in µmol/kg, leaving out any unit text.

Below, each entry is followed by its recorded ED50 result.
Item: Cc1ccccc1OCC(O)CNCCOc1ccccc1O (stereo not drawn) Test system: vascular β-receptors (Felis catus, UniProt Q9TST5) Read-out: ED50 Value: ?
17

Try this compound next: COc1ccc(OCCNCC(O)COc2ccccc2C)cc1OC (stereo not drawn)
5.8

Try this compound next: COc1ccccc1OCCNCC(O)COc1ccccc1C (stereo not drawn)
11

Try this compound next: CCCc1ccccc1OCC(O)CNCCOc1ccc(O)cc1 (stereo not drawn)
0.02

Try this compound next: COc1ccc(OCCNCC(O)COc2ccccc2C)cc1 (stereo not drawn)
8.2

Now consider a different compound.
Item: OCc1ccccc1OCC(O)CNCCOc1ccc(O)cc1 (stereo not drawn) Test system: vascular β-receptors (Felis catus, UniProt Q9TST5) Read-out: ED50 Value: ?
0.05

---

target: α-receptors (Rattus norvegicus); construct: from tissue; host or cells: isolated rat vas deferens; assay: α-receptor blocking activity in isolated rat vas deferens (inhibition of noradrenaline contraction); conditions: noradrenaline as agonist, high pA2 = high α-receptor blocking activity
Sequence (P43140 whole entry): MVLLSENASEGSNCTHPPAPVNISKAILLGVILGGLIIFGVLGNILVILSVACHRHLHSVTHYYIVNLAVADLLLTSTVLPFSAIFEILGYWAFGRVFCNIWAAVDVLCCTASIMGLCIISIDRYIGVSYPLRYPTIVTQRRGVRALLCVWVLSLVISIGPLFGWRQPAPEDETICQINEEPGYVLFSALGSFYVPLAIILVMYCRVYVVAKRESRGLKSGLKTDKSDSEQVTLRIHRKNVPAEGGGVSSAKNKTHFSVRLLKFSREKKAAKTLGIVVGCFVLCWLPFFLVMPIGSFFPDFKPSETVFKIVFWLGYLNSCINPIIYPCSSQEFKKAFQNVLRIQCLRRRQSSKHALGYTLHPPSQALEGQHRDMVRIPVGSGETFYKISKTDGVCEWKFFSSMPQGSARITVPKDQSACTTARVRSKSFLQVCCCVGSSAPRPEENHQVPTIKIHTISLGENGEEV
Assay readout: log10 Kb (log10 of the value in nM)
Values below are the log10 of the recorded Kb, with nM as the unit.

Below, each entry is followed by its recorded log10 Kb result.
Item: COc1ccc(OCCNCC(O)COc2ccccc2C)cc1OC (stereo not drawn) Test system: α-receptors (Rattus norvegicus) Read-out: log10 Kb Value: ?
3.00

Try this compound next: Cc1ccccc1OCC(O)CNCCOc1ccccc1O (stereo not drawn)
3.00

Try this compound next: CCCc1ccccc1OCC(O)CNCCOc1ccc(O)cc1 (stereo not drawn)
2.10

Try this compound next: OCc1ccccc1OCC(O)CNCCOc1ccc(O)cc1 (stereo not drawn)
2.70

Try this compound next: COc1ccccc1OCCNCC(O)COc1ccccc1C (stereo not drawn)
2.00

Now consider a different compound.
Item: COc1ccc(OCCNCC(O)COc2ccccc2C)cc1 (stereo not drawn) Test system: α-receptors (Rattus norvegicus) Read-out: log10 Kb Value: ?
3.20

---

target: cardiac β-receptors (Felis catus, UniProt Q9TST6); construct: All compounds were thereby tested in anaeshtetized cats; from tissue; host or cells: heart of the living, reserpinized, anaesthetized cat; assay: Intrinsic beta mimetic activity on the heart (increase of heart rate), reserpinized anaesthetized cat; format: in vivo; conditions: i.v., maximal heart rate response obtained with high doses of isoprenaline
Assay readout: Intrinsic activity % of isoprenaline

What value of Intrinsic activity % of isoprenaline has been recorded for this entry: CCCc1ccccc1OCC(O)CNCCOc1ccc(O)cc1 (stereo not drawn)
0 % of isoprenaline

---
What value of Intrinsic activity % of isoprenaline has been recorded for this entry: COc1ccc(OCCNCC(O)COc2ccccc2C)cc1OC (stereo not drawn)
11 % of isoprenaline

Try this compound next: COc1ccccc1OCCNCC(O)COc1ccccc1C (stereo not drawn)
8 % of isoprenaline
